target: HEK-293 cells transfected with dox-inducible human wild type FGFR1 (Homo sapiens (Human)); test: FGFR1 pERK cell assay; type: cell-based; conditions: HEK-293 dox-inducible FGFR1, 1 hour compound, 100 ng/ml FGF-acidic; maximum concentration 5 μM
pIC50: −log10 of the molar value.
Measurement type: pIC50

Below, 4 compounds whose answers are already recorded.
C=CC(=O)N1CC(C(=O)N2CCC(n3cc(-c4cc(OC)c5c(C#N)cnn5c4)cn3)CC2)C1C (stereo not shown) | 6.20
C=CC(=O)N1CC(CN2C[C@H]3C[C@@H]2CN3c2ccc(-c3cc(OC)c4c(C#N)cnn4c3)cn2)C1 | 6.94
C=CC(=O)N1CC(CN2CCC(n3ncc(-c4cc(OC)c5c(C#N)cnn5c4)c3C)CC2)(OC)C1 | 6.47
COc1cc(-c2nn(C3CCN(C(=O)C4(F)CN(C(=O)/C=C/CN(C)C)C4)CC3)nc2C)cn2ncc(C#N)c12 | 5.78

1. C=CC(=O)N1CC(C(=O)N2CCC(n3cc(-c4cc(OC)c5c(Cl)cnn5c4)cn3)CC2)C1
2. C=CC(=O)N1CC(CN2CC(n3ncc(-c4cc(OC)c5c(C#N)cnn5c4)c3C)C2)C1
Response body: label of entry with the larger pIC50; valid values 1 , 2 . API: response body contains the label of the selected item.
1
(1: 6.31, 2: 5.60)

* * *

molecular target: HEK-293 cells transfected with dox-inducible human wild type FGFR1 (Homo sapiens (Human), UniProt P11362); assay: FGFR1 pERK cell assay; format: cell-based; conditions: HEK-293 dox-inducible FGFR1, 1 hour compound, 100 ng/ml FGF-acidic; maximum concentration 5 μM
Sequence (P11362 22-822): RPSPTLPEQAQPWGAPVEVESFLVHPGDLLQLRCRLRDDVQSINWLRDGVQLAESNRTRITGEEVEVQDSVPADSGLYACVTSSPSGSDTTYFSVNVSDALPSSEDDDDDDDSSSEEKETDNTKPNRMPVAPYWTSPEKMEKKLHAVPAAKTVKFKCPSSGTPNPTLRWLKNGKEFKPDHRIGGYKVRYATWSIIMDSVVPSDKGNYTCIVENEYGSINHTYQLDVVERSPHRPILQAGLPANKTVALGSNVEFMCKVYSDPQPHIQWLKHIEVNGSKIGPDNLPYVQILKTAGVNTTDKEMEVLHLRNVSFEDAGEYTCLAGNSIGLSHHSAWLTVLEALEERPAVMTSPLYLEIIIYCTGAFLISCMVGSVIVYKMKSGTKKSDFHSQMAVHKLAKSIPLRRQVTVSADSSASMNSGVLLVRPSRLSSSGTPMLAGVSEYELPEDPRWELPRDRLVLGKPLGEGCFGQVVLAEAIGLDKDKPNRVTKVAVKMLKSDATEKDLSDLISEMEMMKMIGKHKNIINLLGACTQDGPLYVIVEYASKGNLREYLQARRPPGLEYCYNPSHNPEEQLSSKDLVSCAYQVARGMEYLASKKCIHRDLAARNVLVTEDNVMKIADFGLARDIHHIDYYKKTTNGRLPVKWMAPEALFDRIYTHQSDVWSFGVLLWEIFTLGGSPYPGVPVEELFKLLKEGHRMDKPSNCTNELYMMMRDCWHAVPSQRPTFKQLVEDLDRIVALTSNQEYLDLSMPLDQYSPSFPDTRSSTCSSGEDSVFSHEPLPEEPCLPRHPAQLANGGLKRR
Measurement type: IC50 (nM)

Recorded IC50, per entry:
C=CC(=O)N1CC(C(=O)N2CC3CC(C2)N3c2ccc(-c3cc(OC)c4c(C#N)cnn4c3)cn2)C1 | 3960
C=CC(=O)N1CC(C)(CN2CC(n3ncc(-c4cc(OC)c5c(C#N)cnn5c4)c3C)C2)C1 | 1910
C=CS(=O)(=O)N[C@H]1C[C@@H](C(=O)N2CCC(n3cc(-c4cc(OC)c5c(C#N)cnn5c4)cn3)CC2)C1 | 328
C=CC(=O)N1CCC(C#N)(C(=O)N2CCC(n3cc(-c4cc(OC)c5c(C#N)cnn5c4)cn3)CC2)C1 (stereo not shown) | 247

I. C=CC(=O)N1CC(C(=O)N2CCN(c3ccc(-c4cc(OC)c5c(C#N)cnn5c4)cn3)CC2)C1
II. COc1cc(-c2cnn(C3CCN(C(=O)C4(F)CN(C(=O)/C=C/C(F)(F)F)C4)CC3)c2C)cn2ncc(C#N)c12
Lab note: check whether I or II has the lower measured IC50. Please reply using the label of the selected record.
II
(II: 157 nM, I: 288 nM)

* * *

target: HEK-293 cells transfected with dox-inducible human wild type FGFR2 (Homo sapiens (Human)); experiment: FGFR2 pFGFR cell assay (ELISA); conditions: HEK-293 dox-inducible FGFR2, 1 hour compound, 30 ng/ml FGF-acidic
Sequence (P21802 22-821): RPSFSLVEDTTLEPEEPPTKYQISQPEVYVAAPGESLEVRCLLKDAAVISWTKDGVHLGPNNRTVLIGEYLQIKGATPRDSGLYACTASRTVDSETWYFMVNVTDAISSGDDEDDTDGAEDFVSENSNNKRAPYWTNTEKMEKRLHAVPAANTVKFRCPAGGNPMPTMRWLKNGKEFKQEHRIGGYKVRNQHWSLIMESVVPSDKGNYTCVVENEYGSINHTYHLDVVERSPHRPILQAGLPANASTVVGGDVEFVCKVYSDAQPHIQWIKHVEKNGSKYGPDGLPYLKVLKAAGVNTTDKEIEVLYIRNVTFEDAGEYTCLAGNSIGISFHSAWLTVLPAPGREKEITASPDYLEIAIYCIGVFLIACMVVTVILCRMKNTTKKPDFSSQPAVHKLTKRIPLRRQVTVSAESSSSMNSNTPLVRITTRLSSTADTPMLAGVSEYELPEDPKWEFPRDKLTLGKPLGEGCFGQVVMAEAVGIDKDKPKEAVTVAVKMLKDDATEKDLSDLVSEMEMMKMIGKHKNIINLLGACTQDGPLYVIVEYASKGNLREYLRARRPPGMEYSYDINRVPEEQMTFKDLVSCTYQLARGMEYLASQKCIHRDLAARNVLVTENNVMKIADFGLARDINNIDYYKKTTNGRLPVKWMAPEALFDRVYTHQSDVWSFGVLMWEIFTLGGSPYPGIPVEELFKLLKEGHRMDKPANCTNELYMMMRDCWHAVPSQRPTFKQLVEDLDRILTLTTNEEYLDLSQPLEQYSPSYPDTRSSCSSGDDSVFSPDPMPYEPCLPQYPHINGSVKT
Measurement type: IC50 (nM)

C=CS(=O)(=O)Nc1cccc(C(=O)N2CCC(n3cc(-c4cc(OC)c5c(C#N)cnn5c4)cn3)CC2)c1 | 160

I. COc1cc(-c2nnn(C3CCN(C(=O)C4(F)CN(C(=O)/C=C/CN(C)C)C4)CC3)c2C)cn2ncc(C#N)c12
II. COc1cc(-c2cnn(C3CCN(C(=O)C4(F)CN(C(=O)/C=C/CN(C)C)C4)CC3)c2C)cn2ncc(C#N)c12
III. COc1cc(-c2cnn(C3CCN(CC4(OC)CN(C(=O)/C=C/CN(C)C)C4)CC3)c2C)cn2ncc(C#N)c12
Please rank these compounds by IC50 in descending order. The labels, placed in the requested order, form the answer.
I, III, II
(I: 1180 nM, III: 451 nM, II: 188 nM)

All values here come from patent US12180207B2.
